Parameter PE binding ELISA OD: see the listing below.
- TARGET OR SYSTEM: T1, mouse common cytokine receptor γ-chain (IL-2Rγ) (mouse, UniProt P34902 23-263, limits assumed)
- T1 construct: Recombinant mouse IL-2Rγ protein; also called mo IL-2R; mouse IL-2R gamma
- T1 sequence (looked up): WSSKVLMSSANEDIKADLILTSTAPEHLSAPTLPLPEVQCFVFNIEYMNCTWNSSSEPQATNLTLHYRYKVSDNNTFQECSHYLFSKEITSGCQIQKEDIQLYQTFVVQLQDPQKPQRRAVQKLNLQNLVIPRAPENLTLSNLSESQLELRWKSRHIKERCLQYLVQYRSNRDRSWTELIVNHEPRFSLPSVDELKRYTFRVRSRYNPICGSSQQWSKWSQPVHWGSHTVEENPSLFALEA
- MEASUREMENT PROTOCOL: P.E. binding ELISA
- Method: In a binding ELISA, human or mouse IL-2Rα, IL-2Rβ and IL-2Rγ proteins were coated directly on maxisorp microtiter plates overnight at 4° C. Free binding sites were blocked using 4% Marvel in PBS for 1 hour. Next, 1:5 dilution of P.E. in 1% Marvel/PBS were added to wells and incubated for 1 hour. […] Binding specificity was determined based on O.D. at 450 nm values compared to negative controls.
MEASUREMENT LABEL: PE binding ELISA OD

>>> assay_result("FJ1427_P035MP07E06 (VHH, tested as periplasmic extract; also called Clone nr) VHH: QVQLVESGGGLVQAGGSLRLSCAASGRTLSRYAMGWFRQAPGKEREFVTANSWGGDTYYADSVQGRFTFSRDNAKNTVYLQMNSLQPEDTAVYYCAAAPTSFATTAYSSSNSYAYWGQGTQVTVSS")
"0.046 OD450 nm"
>>> assay_result("FJ1427_P035MP07G05 (VHH, tested as periplasmic extract; also called Clone nr) VHH: QVQLVESGGGLVQAGGSLRLSCAASGRTLSRYAMGWFRQAPGKEREFVAADSWGGDTYYADSVEGRFTFSRDNANNAVYLQMNSLQPEDTAVYYCAAAPTSFATTAYSSSNSYAYWGQGTQVTVSS")
"0.046 OD450 nm"

The measurements presented in this section are drawn from patent US20240409645A1.
